Cited source: PubChem BioAssay (NCI)

# System: SK-MEL-28 melanoma
# ASSAY_NAME: NCI-60 one-dose screen, 48 h
# CONDITION_LABEL: 10 µM unless noted
Compounds without any hit were thinned out: in the full panel of roughly 83,000, 20% have a hit. The source made the active and inactive calls. Rule for the calls: active = growth percent below 10; inactive = the rest.
Possible outcomes: active, inactive

• C/C(Cc1ccc(Cl)cc1)=C(/c1ccc(Cl)cc1)c1ccc(OCCN2CCCC2)cc1 = inactive
• C=C(C)[C@@H]1CC[C@]2(C(=O)OC)CC[C@]3(C)[C@H](CC[C@@H]4[C@@](C)(CC/C(N)=N/O)[C@H](C(=C)C)CC[C@]43C)[C@@H]12 = inactive
• CN1CCN(CC#CCn2c3c(c4ccccc42)C[C@]2(C)[C@H]4CC[C@@H]5[C@H]6[C@H]7OC(=O)[C@@]6(CCC7(C)C)CC[C@@]5(C)[C@]4(C)CC[C@H]2C3(C)C)CC1 = inactive
• Cn1cc(-c2csc(-c3cn(CCNC(=O)OC(C)(C)C)c4ccccc34)n2)c2cccnc21 = inactive
• C=C(C)[C@@H]1CC[C@]2(C(=O)N3CCCNCC3)CC[C@]3(C)[C@H](CC[C@@H]4[C@@]5(C)CCC(=O)C(C)(C)[C@@H]5CC[C@]43C)[C@@H]12 = inactive
• COc1ccc(/C=C/C(=O)NCCO)cc1 = inactive
• Cn1cc(-c2csc(-c3cn(CCCN4CCCCC4)c4ccccc34)n2)c2cccnc21 = active
• CC(C)/C=C/CC[C@](C)(O)[C@H]1CC[C@]2(C)[C@@H]1CC[C@@H]1[C@@]3(C)C/C(=C/c4cccc(C(F)(F)F)c4)C(=O)C(C)(C)[C@@H]3CC[C@]12C = inactive
• Cc1ccc(-c2ccc(/C=C(\C#N)c3nc(-c4ccco4)cs3)o2)cc1 = inactive
• N#CC1=C(N)Oc2ccc3ccccc3c2C1c1ccccc1Cl (centres undefined) = inactive
• Cc1cc(Cl)nc(N(CCNc2ccnc3cc(Cl)ccc23)Cc2ccco2)n1 = active
• COC1=C(Br)C(=O)C(OC)=C(Br)C1=O = inactive
• COC(=O)[C@]12CC[C@@H](C(C)=O)[C@@H]1[C@H]1CC[C@@H]3[C@@]4(C)C/C(=C/c5cccnc5)C(=O)C(C)(C)[C@@H]4CC[C@@]3(C)[C@]1(C)CC2 = inactive
• COc1cnc2c(c1)C(=O)c1c-2n(CCCNCCN2CCOCC2)c(=O)c2cc([N+](=O)[O-])ccc12 = inactive
• c1ccc2[nH]c(-c3cc(-c4ccc5c(c4)OCO5)n[nH]3)nc2c1 = inactive
• N#C/C(=C\c1ccc(-c2cccc(C(F)(F)F)c2)o1)c1nc(-c2ccco2)cs1 = inactive
• CC(=O)Cc1nsc(NC(=O)c2ccoc2COc2ccccc2)n1 = inactive
• CN1CCN(CCOc2ccc(-c3cnc4c(-c5ccccc5F)cnn4c3)cc2)CC1 = inactive
• COc1ccc(CCN2C(=O)C(C)(C)SC2=S)cc1OC = inactive
• O=C(NO)c1ccc(Cn2c(=O)n(-c3ccccc3)c(=O)c3ccccc32)cc1 = active
• Cn1cc(-c2csc(-c3cn(CCN)c4ccccc34)n2)c2cccnc21 = inactive
• COc1cccc(NC(=O)c2sc3nc4c(cc3c2N)C(=O)CCC4)c1 = inactive
• COC(=O)[C@]12CC[C@@H](C(/C=C/c3cccnc3)=N/O)[C@@H]1[C@H]1CC[C@@H]3[C@@]4(C)CC(=C/c5cccnc5)/C(=N/O)C(C)(C)[C@@H]4CC[C@@]3(C)[C@]1(C)CC2 = inactive
• COc1ccc(/C=C2\N=C(c3ccccc3)N(c3cc(OC)c(OC)cc3C(=O)N3N=C(C)CC3=O)C2=O)cc1 = inactive
• C#CCN=C[C@]12CC[C@@H](C(=C)C)[C@@H]1[C@H]1CC[C@@H]3[C@@]4(C)CCC(=O)C(C)(C)[C@@H]4CC[C@@]3(C)[C@]1(C)CC2 = inactive
• O=C(N/N=C\c1ccccc1O)C1CC1 = inactive
• Clc1ccc2c(NCCNc3nc(-c4ccccc4)cc(-c4ccccc4)n3)ccnc2c1 = active
• O=C1CCCC=CC[C@H]2C=C(Cl)C(=O)C2=CC[C@H](CCCCC(F)(F)F)OC(=O)CCCC=CC[C@H]2C=C(Cl)C(=O)C2=CC[C@H](CCCCC(F)(F)F)OC(=O)CCCC=CC[C@H]2C=C(Cl)C(=O)C2=CC[C@H](CCCCC(F)(F)F)O1 = inactive
• O=C1c2cccc3cccc(c23)C(=O)N1CC#Cc1ccc2c3c(cccc13)C(=O)N(CCO)C2=O = inactive
• Nc1c(C(=O)Nc2cccc(Br)c2)sc2nc3c(cc12)C(=O)CCC3 = inactive
• CC1(C)C=CC[C@]2(C)[C@H]3CC[C@@H]4[C@H]5[C@H](C(=O)/C=C/c6cccnc6)CC[C@]5(CO)CC[C@@]4(C)[C@]3(C)CC[C@@H]12 = active
• CCc1nnc(NC(=O)c2ccoc2COc2ccccc2)s1 = inactive
• COc1ccc(/C=C/C(=O)c2ccc([N+](=O)[O-])cc2)cc1 = inactive
• CC(=O)N1N=C(c2ccc(C)cc2)CC1c1ccc(Oc2ccc(Br)cc2)cc1 (centres undefined) = inactive
